Catalogue of pest or weed control at 100 g/ha readings, one per entry.
Test system: green peach aphid (Myzus persicae)
Test: Myzus persicae spray test
Format: in vivo
Conditions: foliar, 120 h, after 5 days, Chinese cabbage leaf disks, read-out: efficacy in %
Numbers only here, please. The scale is %.

Here are 3 compounds together with their reported answers.
compound	tested.on	measured.metric	unit.spec	result.number
CCS(=O)(=O)c1c(-c2nc3cc(C(F)(F)F)ccc3n2C)ncc2cc(C3(C#N)CC3)ccc12 [Example I-6]	green peach aphid (Myzus persicae)	pest or weed control at 100 g/ha	%	90
CCS(=O)(=O)c1c(-c2nc3cc(OC(F)(F)F)ccc3n2C)ncc2cc(C3(C#N)CC3)ccc12 [Example I-12]	green peach aphid (Myzus persicae)	pest or weed control at 100 g/ha	%	100
CCS(=O)(=O)c1c(-c2nc3cc(C(F)(F)C(F)F)cnc3n2C)ncc2cc(C3(C#N)CC3)ccc12 [Example I-14]	green peach aphid (Myzus persicae)	pest or weed control at 100 g/ha	%	100

Now consider the entry below.
For the compound shown here, CCS(=O)(=O)c1c(-c2nc3cc(OC(F)(F)C(F)(F)F)cnc3n2C)ncc2cc(C3(C#N)CC3)ccc12 [Example I-5] , give the reported pest or weed control at 100 g/ha.
90

====

Recorded pest or weed control at 100 g/ha, one value per entry.
Tested on: green peach aphid (Myzus persicae)
Test: Myzus persicae spray test
Type: in vivo
Conditions: foliar, 120 h, after 5 days, Chinese cabbage leaf disks, read-out: efficacy in %
Protocol: Myzus Persicae—Spray Test • Solvent: 78 parts by weight of acetone • 1.5 parts by weight of dimethylformamide • Emulsifier: alkylaryl polyglycol ether To produce a suitable active compound formulation, 1 part by weight of active compound is dissolved using the stated parts by weight of solvent and made up with water containing an emulsifier concentration of 1000 ppm until the desired concentration is attained. […] After 5 days, the efficacy in % is determined. […]
Express it in %; write the number only.

CCS(=O)(=O)c1c(-c2nc3cc(OC(F)(F)F)cnc3n2C)ncc2cc(C3(C#N)CC3)ccc12 100
CCS(=O)(=O)c1c(-c2nc3cc(C(F)(F)F)ncc3n2C)ncc2cc(C3(C#N)CC3)ccc12 90
CCS(=O)(=O)c1c(-c2nc3cc(C(F)(F)C(F)(F)F)cnc3n2C)ncc2cc(C3(C#N)CC3)ccc12 100
CCS(=O)(=O)c1c(-c2nc3cc(C(F)(F)F)nnc3n2C)ncc2cc(C3(C#N)CC3)ccc12 90
CCS(=O)(=O)c1c(-c2nc3cc(C(F)(F)F)cnc3n2C)ncc2cc(C3(C#N)CC3)ccc12 90
CCS(=O)(=O)c1c(-c2nc3cc(C(F)(F)C(F)(F)F)nnc3n2C)ncc2cc(C3(C#N)CC3)ccc12 100

The record that follows has no pest or weed control at 100 g/ha shown yet.
May I ask what pest or weed control at 100 g/ha has been recorded for "CCS(=O)(=O)c1c(-c2nc3cc(C(F)(F)C(F)(F)F)ncc3n2C)ncc2cc(C3(C#N)CC3)ccc12" ?
100

====

Reported chromatographic logP values are given for each entry in this list.
Assay: log P by HPLC on reversed-phase column (C18), neutral range
Assay type: physicochemical
Settings: ammonium carbonate in water / acetonitrile
Please respond with just the number, no unit label.

Data request, read-out chromatographic logP, for "CCSc1c(-c2nc3cc(C(F)(F)F)cnc3n2C)ncc2cc(C3(C#N)CC3)ccc12"
3.67

Any idea what chromatographic logP was measured for "CCSc1c(-c2nc3cc(C(F)(F)F)cnc3n2C)ncc2cc(CC#N)ccc12" ?
3.22

Look up chromatographic logP: "CCSc1c(-c2nc3cc(C(F)(F)F)cnc3n2C)ncc2cc(Br)ccc12"
4.36

Give the measured chromatographic logP of "CCS(=O)(=O)c1c(-c2nc3cc(C(F)(F)F)cnc3n2C)ncc2cc(C3(C#N)CC3)ccc12" .
3.02
